# Tested on: Spleen
# method: Biodistribution in ddY mouse spleen at 0.2 to 0.3 uCi, iv after 2 mins
# Type: ADME, organism-based
# measurement-setup: in vivo
measurement-label: Drug uptake (% ID/g)

A = Nc1ccc(/C=C/C(=O)c2ccc([125I])cc2)cc1
B = CNc1ccc(/C=C/C(=O)c2ccc([125I])cc2)cc1
## Input Returns the identifier with the smallest measured Drug uptake among A and B . Selection: enter the item's label.
## Output A

A = COc1ccc(/C=C/C(=O)c2ccc([125I])cc2)cc1
B = O=C(/C=C/c1ccc(O)cc1)c1ccc([125I])cc1
## Input Pick one: A or B . Which has the bigger Drug uptake number? Selection: enter the item's label.
## Output B
(B: 3.56 % ID/g, A: 1.38 % ID/g)
